# TARGET DESC: Pneumolysin (PLY) (Streptococcus pneumoniae)
# Sequence (Q04IN8 2-471 limits assumed): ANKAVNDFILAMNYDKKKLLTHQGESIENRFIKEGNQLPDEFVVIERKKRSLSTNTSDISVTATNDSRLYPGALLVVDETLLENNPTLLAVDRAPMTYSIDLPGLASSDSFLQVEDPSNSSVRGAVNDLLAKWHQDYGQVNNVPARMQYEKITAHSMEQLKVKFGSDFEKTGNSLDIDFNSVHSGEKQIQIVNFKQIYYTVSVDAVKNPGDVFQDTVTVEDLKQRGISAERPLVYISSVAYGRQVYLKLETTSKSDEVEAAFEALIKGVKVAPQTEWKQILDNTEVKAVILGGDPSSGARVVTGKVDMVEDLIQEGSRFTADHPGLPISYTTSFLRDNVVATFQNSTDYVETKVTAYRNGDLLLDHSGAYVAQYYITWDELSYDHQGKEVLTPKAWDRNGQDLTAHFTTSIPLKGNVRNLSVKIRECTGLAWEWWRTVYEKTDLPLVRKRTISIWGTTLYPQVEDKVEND
QUANTITY: IC50 (µM)
The answer is to be given in µM; state only the numeric part.

Problem: Suppose we examine the compound COc1c(O)cc(O)c2c(=O)cc(-c3ccccc3)oc12 ; what IC50 value has been reported?
Result: 186
